pIC50: −log10 of the molar value.
// each record: one item and its pIC50 for CREB-binding protein (Homo sapiens, UniProt Q92793)
Measure name: pIC50

| Mol smiles | Study target | Recorded number |
| --- | --- | --- |
| Cc1ccc(CN2C(=O)/C(=C3\SC(=S)N(CCCCCC(=O)O)C3=O)c3ccccc32)cc1 | CREB-binding protein (Homo sapiens, UniProt Q92793) | 4.39 |
| O=C(O)CCCCCN1C(=O)/C(=C2/C(=O)N(Cc3ccc([N+](=O)[O-])cc3)c3ccccc32)SC1=S | CREB-binding protein (Homo sapiens, UniProt Q92793) | 4.55 |

###

// each record: one item and its pIC50 for Histone acetyltransferase p300 (Homo sapiens)
pIC50: −log10 of the molar value.

| Mol smiles | pIC50 |
| --- | --- |
| O=C(O)CCCCCN1C(=O)/C(=C2/C(=O)N(Cc3ccc([N+](=O)[O-])cc3)c3ccccc32)SC1=S | 3.82 |
| Cc1ccc(CN2C(=O)/C(=C3\SC(=S)N(CCCCCCCC(=O)O)C3=O)c3ccccc32)cc1 | 4.02 |
| Cc1ccc(CN2C(=O)/C(=C3\SC(=S)N(CCCCCC(=O)O)C3=O)c3ccccc32)cc1 | 4.09 |
| O=C(O)CCCCCN1C(=O)/C(=C2/C(=O)N(Cc3ccc(F)cc3)c3ccccc32)SC1=S | 3.61 |

###

Quick list: inhibition per entry.
molecular target: Histone acetyltransferase KAT2B (Homo sapiens, UniProt Q92831); assay: Inhibition of human recombinant N-terminal His-tagged PCAF histone acetyltransferase catalytic domain expressed in Escherichia coli BL21 D3 using biotinylated histone H3 as substrate at 50 uM after 10 mins by TR-FRET analysis relative to control
Sequence (Q92831 whole entry, looked up, the tested form may be a part): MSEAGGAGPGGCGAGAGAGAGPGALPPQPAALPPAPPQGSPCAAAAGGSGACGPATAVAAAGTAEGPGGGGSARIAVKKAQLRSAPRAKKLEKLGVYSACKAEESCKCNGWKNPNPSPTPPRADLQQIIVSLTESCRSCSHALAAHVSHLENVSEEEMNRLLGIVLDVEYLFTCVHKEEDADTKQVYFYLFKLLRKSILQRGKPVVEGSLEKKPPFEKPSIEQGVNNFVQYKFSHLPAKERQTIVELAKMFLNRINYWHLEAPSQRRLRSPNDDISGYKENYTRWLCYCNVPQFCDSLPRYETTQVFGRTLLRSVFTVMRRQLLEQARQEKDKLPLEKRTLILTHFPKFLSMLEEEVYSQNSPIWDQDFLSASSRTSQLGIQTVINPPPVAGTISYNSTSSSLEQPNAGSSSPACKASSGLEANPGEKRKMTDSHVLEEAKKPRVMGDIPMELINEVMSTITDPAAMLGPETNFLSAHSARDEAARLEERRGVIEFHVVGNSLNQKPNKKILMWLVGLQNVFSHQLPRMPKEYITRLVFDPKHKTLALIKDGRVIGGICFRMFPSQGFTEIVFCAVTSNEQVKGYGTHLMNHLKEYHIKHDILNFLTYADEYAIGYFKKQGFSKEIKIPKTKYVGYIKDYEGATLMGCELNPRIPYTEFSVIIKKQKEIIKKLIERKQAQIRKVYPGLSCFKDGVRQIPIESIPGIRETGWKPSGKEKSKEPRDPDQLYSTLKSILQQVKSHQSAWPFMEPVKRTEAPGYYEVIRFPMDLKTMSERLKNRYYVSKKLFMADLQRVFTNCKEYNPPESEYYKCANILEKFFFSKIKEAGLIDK
Measure name: inhibition (%)

| Mol smiles | Study target | Comparison sign | Recorded number |
| --- | --- | --- | --- |
| Cc1ccc(COc2cccc(/C=C3\SC(=S)N(CCCC(=O)O)C3=O)c2)cc1 | Histone acetyltransferase KAT2B (Homo sapiens, UniProt Q92831) | = | 5 |
| COC(=O)CCCCCN1C(=O)/C(=C2/C(=O)N(Cc3ccc(C)cc3)c3ccccc32)SC1=S | Histone acetyltransferase KAT2B (Homo sapiens, UniProt Q92831) | = | 8 |
| Cc1ccc(CN2C(=O)/C(=C3\SC(=S)N(CCCCC(=O)O)C3=O)c3ccccc32)cc1 | Histone acetyltransferase KAT2B (Homo sapiens, UniProt Q92831) | = | 8 |
| Cc1cccc(NC(=O)CN2C(=O)/C(=C3\SC(=S)N(CCS(=O)(=O)O)C3=O)c3ccccc32)c1 | Histone acetyltransferase KAT2B (Homo sapiens, UniProt Q92831) | = | 6 |
| O=C(O)CCCCCN1C(=O)/C(=C2/C(=O)Nc3ccccc32)SC1=S | Histone acetyltransferase KAT2B (Homo sapiens, UniProt Q92831) | = | 9 |
| O=C(O)c1ccc(N2C(=O)/C(=C3/C(=O)N(Cc4ccccc4)c4ccccc43)SC2=S)cc1 | Histone acetyltransferase KAT2B (Homo sapiens, UniProt Q92831) | = | 14 |
| COC(=O)CCCCCN1C(=O)/C(=C/c2cc(OC)ccc2OC)SC1=S | Histone acetyltransferase KAT2B (Homo sapiens, UniProt Q92831) | = | 21 |
| CCN1C(=O)/C(=C2\SC(=S)N(CCCCCC(=O)O)C2=O)c2ccccc21 | Histone acetyltransferase KAT2B (Homo sapiens, UniProt Q92831) | = | 6 |
| Cc1ccc(CN2C(=O)/C(=C3\SC(=S)N(CCS(=O)(=O)O)C3=O)c3ccccc32)cc1 | Histone acetyltransferase KAT2B (Homo sapiens, UniProt Q92831) | < | 5 |
